SYSTEM_TESTED: muscarinischen Rezeptoren (Großhirnrinde)
ASSAY_PROTOCOL: Receptor binding test, ³H-NMS displacement, cerebral cortex homogenate
MEASUREMENT_CONDITIONS: rat cerebral cortex homogenate; 0,3 n molar ³H-NMS; 30°C, 45 min; read-out: Rezeptor-Bindungs-Tests IC₅₀ Cortex
Form field: IC50 (one value per entry).

{"columns": ["MOLECULE", "IC50 (nM)"],
 "data": [
  ["CCN(CC)CC1CCCCN1CC(=O)N1c2ccccc2C(=O)Nc2cccnc21 (centres unmarked)", 1200],
  ["O=C1Nc2cccnc2N(C(=O)CCCCCN2CCCCC2)c2ccccc21", 60]
]}
